Entry source: patent US20230303695A1

Below, each entry is listed alongside its reported kon.
Biological target: T1, recombinant human IGSF8 extracellular domain tagged by a human Fc region (IGSF8-hFc) (human, UniProt Q969P0 28-579, biotin label in Examples 17, 18 and 28 (site not given))
T1 construct: also called IGSF8-Fc fusion protein; IGSF8-hFc-biotin; not shown: human Fc region
T1 sequence: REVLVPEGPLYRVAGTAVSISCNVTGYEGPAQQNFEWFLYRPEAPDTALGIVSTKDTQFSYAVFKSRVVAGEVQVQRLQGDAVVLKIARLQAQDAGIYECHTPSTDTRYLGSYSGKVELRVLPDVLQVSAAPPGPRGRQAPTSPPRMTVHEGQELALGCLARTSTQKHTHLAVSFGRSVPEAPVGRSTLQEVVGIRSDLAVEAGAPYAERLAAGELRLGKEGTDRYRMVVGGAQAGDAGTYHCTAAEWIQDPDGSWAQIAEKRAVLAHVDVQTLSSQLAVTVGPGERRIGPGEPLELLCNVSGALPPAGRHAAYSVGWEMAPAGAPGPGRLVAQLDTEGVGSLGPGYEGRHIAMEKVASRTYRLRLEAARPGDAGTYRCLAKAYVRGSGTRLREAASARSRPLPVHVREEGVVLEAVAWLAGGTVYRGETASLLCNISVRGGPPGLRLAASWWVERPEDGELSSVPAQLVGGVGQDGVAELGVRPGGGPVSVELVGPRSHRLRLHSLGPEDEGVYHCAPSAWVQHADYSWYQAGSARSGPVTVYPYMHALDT
Experiment: SPR, Ab captured
Dear colleague, please send the value followed by its unit.

Recorded kon, per entry:
{"binder": "L1VH-D99N (antibody, V domains shown) VH: QVQLVESGGGVVQPGRSLRLSCAASGFTFSTYGMHWVRQAPGKGLEWVAVIWDDGSYKYYGDSVKGRFTISRDNSKNTLYLQMNSLRAEDTAVYYCARNGSGWGYAFDIWGQGTMVTVSS VL: DIQLTQSPSSLSASVGDRVTITCQASQDISEYLNWYQHKPGKAPNPLVFDAANLETGVPPRFSATGSGTDFSLTITSLQPEDFATYYCQQYDSFPYTFGQGTRLDIK", "value_type": "kon", "result": "17800 M⁻¹ s⁻¹"}
{"binder": "L1-26 (antibody, V domains shown) VH: QVQLVESGGGVVQPGRSLRLSCAASGFTFSTYGMHWVRQAPGKGLEWVAVIWDDGSYKYYGDSVKGRFTISRDNSKNTLYLQMNSLRAEDTAVYYCARDGSGWGYAFDIWGQGTLVTVSS VL: DIQLTQSPSSLSASVGDRVTITCQASQDISPYLNWYQHKPGKAPKPLVFGSPNLETGVPSRFSASGSGTDFTLTISSLQPEDFATYYCQQYDSFPYTFGQGTKVEIK", "value_type": "kon", "result": "503000 M⁻¹ s⁻¹"}

In the following, a different binder is considered.
[ask] Look up kon for this binder: L2VL-I53S (antibody, V domains shown) VH: EVQLVESGGGLEQPGGSLRLSCAGSGFTFRDYAMTWVRQAPGKGLEWVSSISGSGGNTYYADSVKGRFTISRDNSKNTLYLQMNSLRAEDTAIYYCARGEYSSGWPSWFDPWGQGTLVTVSS VL: EIVLTQSPSSLSASVGDRVTISCRASRTVGTFLNWYQQRPGKPPQALILGVSSLEGGVSSRFSGAGSGTEFSLTISSLQPEDIGTYYCQQSHDVPRTFGQGTKVDLR
[reply] 1350 M⁻¹ s⁻¹
